- SYSTEM_TESTED: mouse melanocortin-1 receptor (mouse, UniProt Q01727 1-315)
- Sequence (Q01727 whole entry): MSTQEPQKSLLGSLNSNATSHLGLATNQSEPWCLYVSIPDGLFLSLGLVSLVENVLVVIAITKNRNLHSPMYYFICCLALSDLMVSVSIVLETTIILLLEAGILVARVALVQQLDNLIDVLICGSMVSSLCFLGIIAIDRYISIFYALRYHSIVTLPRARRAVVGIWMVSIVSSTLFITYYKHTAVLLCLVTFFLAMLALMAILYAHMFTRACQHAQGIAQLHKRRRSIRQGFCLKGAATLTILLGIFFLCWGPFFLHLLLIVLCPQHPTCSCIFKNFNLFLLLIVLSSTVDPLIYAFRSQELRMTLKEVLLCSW
- TEST: cell-based or functional assay
[ ]: non-standard residue; d: D form. Nle = CCCC[C@H](N)C(=O)O
MEASURED_ENDPOINT: EC50 (agonist) (nM)
I only need the number, in nM, no unit after it.

Here are 2 binders together with their reported answers.
[
  {
    "BINDER": "Ac-SYS[Nle]EHRFFGKPV-NH2 [SEQ ID NO:15 (Ac-Ser-Tyr-Ser-Nle-Glu-His-Arg-Phe-Phe-Gly-Lys-Pro-Val)]",
    "EC50 (agonist), nM": 59.9
  },
  {
    "BINDER": "YDHXRXNAFXY (Asp-Dpr side chain lactam bridge; Dpr; DPhe; DNal(2′); C-terminal amide (amide resin)) [SEQ ID NO:40 (Tyr-c[Asp-His-DPhe-Arg-DNal(2′)-Asn-Ala-Phe-Dpr]-Tyr)]",
    "EC50 (agonist), nM": 0.2
  }
]

Turning now to a further record.
Task item: Look up EC50 (agonist): YDHXKWNAFXY (Asp-Dpr side chain lactam bridge; Dpr; DPhe; C-terminal amide (amide resin)) [SEQ ID NO:37 (Tyr-c[Asp-His-DPhe-Lys-Trp-Asn-Ala-Phe-Dpr]-Tyr)]
Reply: 680

Sourced from patent US7084111
